targetEntity: human TRPV4 (Homo sapiens, UniProt Q9HBA0)
Construct: expressed in transfected cells; host or cells: BHK/AC9 cells transduced with BacMam virus
Sequence (Q9HBA0 whole entry): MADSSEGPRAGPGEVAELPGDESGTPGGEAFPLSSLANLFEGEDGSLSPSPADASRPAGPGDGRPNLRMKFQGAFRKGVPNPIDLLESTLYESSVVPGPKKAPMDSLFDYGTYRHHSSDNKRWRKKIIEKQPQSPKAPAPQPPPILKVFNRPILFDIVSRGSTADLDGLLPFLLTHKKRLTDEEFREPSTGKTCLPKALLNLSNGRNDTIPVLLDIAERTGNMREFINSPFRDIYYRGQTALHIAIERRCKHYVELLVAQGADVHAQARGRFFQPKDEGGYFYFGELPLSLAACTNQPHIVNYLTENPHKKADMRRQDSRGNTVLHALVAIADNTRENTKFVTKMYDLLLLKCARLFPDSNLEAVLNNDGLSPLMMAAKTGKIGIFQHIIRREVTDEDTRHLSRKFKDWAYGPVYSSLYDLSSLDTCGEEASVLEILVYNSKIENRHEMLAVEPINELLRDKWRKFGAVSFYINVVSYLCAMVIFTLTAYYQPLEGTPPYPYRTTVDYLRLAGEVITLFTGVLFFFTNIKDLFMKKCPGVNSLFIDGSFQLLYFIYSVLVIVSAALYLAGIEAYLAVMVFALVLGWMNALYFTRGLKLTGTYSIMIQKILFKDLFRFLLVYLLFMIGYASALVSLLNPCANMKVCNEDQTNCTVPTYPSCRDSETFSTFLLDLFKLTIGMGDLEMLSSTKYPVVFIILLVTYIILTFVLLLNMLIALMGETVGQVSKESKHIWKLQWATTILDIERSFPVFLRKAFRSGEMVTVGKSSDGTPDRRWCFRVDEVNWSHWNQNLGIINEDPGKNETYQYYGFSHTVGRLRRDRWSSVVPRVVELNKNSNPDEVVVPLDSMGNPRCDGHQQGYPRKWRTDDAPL
assayText: FLIPR assay for hTRPV4 expressed in BHK cells: inhibition of Agonist Compound-induced calcium signal
Assay type: cell-based
testSettings: hTRPV4 in BHK/AC9 cells, FLIPR calcium signal, agonist at EC80; reported as range class; read-out: IC50
endpoint: IC50

[
  {
    "chemicalStructure": "N#Cc1ccc(O[C@H]2CN(S(=O)(=O)c3ccc(Br)cn3)C[C@@]2(O)CN)cc1F",
    "IC50": "0.1 to 10 nM"
  }
]

Given the compound N#Cc1ccc(O[C@H]2CN(S(=O)(=O)c3ccc(Cl)nc3)C[C@@]2(O)CO)cc1F , what is its reported IC50? 10 to 100 nM

Fill in the blank: the reported IC50 of C[C@H](O)[C@]1(O)CN(S(=O)(=O)c2ccc(F)cc2C#N)C[C@@H]1Oc1ccc(C#N)c(F)c1 is ____. 0.1 to 10 nM

Entry N#Cc1ccc(O[C@H]2CN(S(=O)(=O)c3ccc(C(F)(F)F)nc3Cl)C[C@@]2(O)CO)cc1F has what IC50? 0.1 to 10 nM

I have this compound here, O=S(=O)(c1ccc(Cl)cc1Cl)N1C[C@H](Oc2ccc(F)c(F)c2)[C@](O)(CO)C1 , and I need its recorded IC50. 10 to 100 nM

Would you kindly share the measured IC50 for N#Cc1ccc(O[C@H]2CN(S(=O)(=O)c3c(Cl)cc(Cl)cc3Cl)C[C@@]2(O)CO)cc1F ? 10 to 100 nM

What IC50 value was documented for this compound, N#Cc1ccc(O[C@H]2CN(S(=O)(=O)c3ccc(I)cc3C#N)C[C@@]2(O)CO)cc1F ? 0.1 to 10 nM
